Parameter: kinact/KI. Scope: all listed entries.
# tested_target: PAD1 (Homo sapiens, UniProt Q9ULC6)
# Construct: made in house
# Sequence (Q9ULC6 1-663): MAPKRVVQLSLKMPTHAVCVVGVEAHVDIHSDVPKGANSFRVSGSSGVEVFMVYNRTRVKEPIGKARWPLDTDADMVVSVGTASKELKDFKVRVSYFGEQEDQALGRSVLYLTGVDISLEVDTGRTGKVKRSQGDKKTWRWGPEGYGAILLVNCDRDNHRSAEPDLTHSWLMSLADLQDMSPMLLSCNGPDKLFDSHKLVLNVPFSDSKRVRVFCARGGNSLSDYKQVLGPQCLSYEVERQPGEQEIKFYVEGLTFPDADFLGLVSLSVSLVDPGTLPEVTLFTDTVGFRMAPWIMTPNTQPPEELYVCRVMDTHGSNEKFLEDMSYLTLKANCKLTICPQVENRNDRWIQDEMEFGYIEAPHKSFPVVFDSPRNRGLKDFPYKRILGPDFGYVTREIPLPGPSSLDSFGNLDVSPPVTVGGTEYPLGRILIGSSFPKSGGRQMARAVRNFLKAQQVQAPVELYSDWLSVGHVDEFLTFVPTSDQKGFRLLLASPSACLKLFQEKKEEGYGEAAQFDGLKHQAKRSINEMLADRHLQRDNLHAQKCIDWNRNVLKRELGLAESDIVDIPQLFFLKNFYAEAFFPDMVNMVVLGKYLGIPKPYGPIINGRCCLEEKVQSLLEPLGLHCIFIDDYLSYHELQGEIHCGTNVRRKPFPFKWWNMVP
# procedure_details: Inactivation kinetics, PAD1
# Format: biochemical
# condition: a: single kobs determined; b: from a linear fit
Note: unit M⁻¹ s⁻¹ is implicit; provide only the numeric part.

Observe how each entry below is paired with its result.
- molecular_string: "CCN1Cc2cccc(C(=O)N[C@@H](CCCNC(=N)CCl)c3nc4ccccc4n3C(C)C)c2C1=O"
  readout_name: "kinact/KI"
  unit_label: "M⁻¹ s⁻¹"
  readout_value: 448
- molecular_string: "CC(C)n1c([C@H](CCCNC(=N)CF)NC(=O)c2cccc3c2C(=O)NC3)nc2ccccc21"
  readout_name: "kinact/KI"
  unit_label: "M⁻¹ s⁻¹"
  readout_value: 104
- molecular_string: "N=C(CCl)NCCC[C@H](NC(=O)c1ccc(-c2ccccc2)cc1)c1nc2cc(F)c(F)cc2[nH]1"
  readout_name: "kinact/KI"
  unit_label: "M⁻¹ s⁻¹"
  readout_value: 457
- molecular_string: "CCN1Cc2cccc(C(=O)N[C@@H](CCCNC(=N)CCl)c3nc4cc(OC)ccc4n3CC)c2C1=O"
  readout_name: "kinact/KI"
  unit_label: "M⁻¹ s⁻¹"
  readout_value: 501
- molecular_string: "N=C(CF)NCCC[C@H](NC(=O)c1ccc2ccccc2c1)c1nc2ccccc2[nH]1"
  readout_name: "kinact/KI"
  unit_label: "M⁻¹ s⁻¹"
  readout_value: 25
- molecular_string: "CCOc1cccc2c1nc([C@H](CCCNC(=N)CF)NC(=O)c1cccc3c1C(=O)N(CC)C3)n2C"
  readout_name: "kinact/KI"
  unit_label: "M⁻¹ s⁻¹"
  readout_value: 497

Query (molecule): `CCN1Cc2cccc(C(=O)N[C@@H](CCCNC(=N)CF)c3nc4cc(OC)ccc4[nH]3)c2C1=O` ; field requested: kinact/KI 156

Query (molecule): `COc1ccc2[nH]c([C@H](CCCNC(=N)CCl)NC(=O)c3cccc4c3C(=O)NC4)nc2c1` ; field requested: kinact/KI 2130

Query (molecule): `N=C(CF)NCCC[C@H](NC(=O)c1ccc(-c2ccccc2)cc1)c1nc2ccccc2[nH]1` ; field requested: kinact/KI 15

Query (molecule): `CC(C)n1c([C@H](CCCNC(=N)CF)NC(=O)c2ccc(-c3ccccc3)cc2)nc2ccccc21` ; field requested: kinact/KI 0.333

Query (molecule): `CC(C)n1c([C@H](CCCNC(=N)CCl)NC(=O)c2cccc3c2C(=O)NC3)nc2ccccc21` ; field requested: kinact/KI 960

Query (molecule): `CCn1c([C@H](CCCNC(=N)CCl)NC(=O)c2ccccc2C(=O)OC(C)(C)C)nc2ccccc21` ; field requested: kinact/KI 200

Query (molecule): `CCN1Cc2cccc(C(=O)N[C@@H](CCCNC(=N)CCl)c3nc4c(OC)cccc4n3C)c2C1=O` ; field requested: kinact/KI 963

Query (molecule): `N=C(CF)NCCC[C@H](NC(=O)c1ccc(-c2ccccc2)cc1)c1nc2cc(F)c(F)cc2[nH]1` ; field requested: kinact/KI 31
